IC50 reference
- measured_target: Angiotensin II receptor (Rattus norvegicus, UniProt P29089+P25095+P35351)
- Sequence (P29089 whole entry): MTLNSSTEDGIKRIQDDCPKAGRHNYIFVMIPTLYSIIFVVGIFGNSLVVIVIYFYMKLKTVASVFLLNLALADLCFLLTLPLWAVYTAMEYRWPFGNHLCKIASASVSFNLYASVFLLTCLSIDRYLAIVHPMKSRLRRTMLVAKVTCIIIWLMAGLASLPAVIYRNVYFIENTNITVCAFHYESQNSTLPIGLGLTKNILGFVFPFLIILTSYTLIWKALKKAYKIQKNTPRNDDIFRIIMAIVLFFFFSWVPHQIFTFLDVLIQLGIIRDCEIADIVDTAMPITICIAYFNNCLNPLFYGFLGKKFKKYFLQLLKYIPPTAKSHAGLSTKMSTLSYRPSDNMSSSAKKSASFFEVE
- Sequence (P25095 whole entry): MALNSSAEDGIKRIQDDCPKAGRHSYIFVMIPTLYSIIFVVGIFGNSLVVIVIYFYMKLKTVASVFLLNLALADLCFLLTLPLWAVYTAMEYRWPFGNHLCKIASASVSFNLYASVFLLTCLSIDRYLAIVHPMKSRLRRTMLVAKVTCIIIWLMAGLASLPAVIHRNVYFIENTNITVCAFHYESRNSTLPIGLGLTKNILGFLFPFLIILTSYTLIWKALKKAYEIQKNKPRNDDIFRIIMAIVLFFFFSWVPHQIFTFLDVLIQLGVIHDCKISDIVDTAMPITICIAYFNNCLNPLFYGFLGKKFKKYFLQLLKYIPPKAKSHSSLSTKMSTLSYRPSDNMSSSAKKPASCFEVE
- Sequence (P35351 whole entry): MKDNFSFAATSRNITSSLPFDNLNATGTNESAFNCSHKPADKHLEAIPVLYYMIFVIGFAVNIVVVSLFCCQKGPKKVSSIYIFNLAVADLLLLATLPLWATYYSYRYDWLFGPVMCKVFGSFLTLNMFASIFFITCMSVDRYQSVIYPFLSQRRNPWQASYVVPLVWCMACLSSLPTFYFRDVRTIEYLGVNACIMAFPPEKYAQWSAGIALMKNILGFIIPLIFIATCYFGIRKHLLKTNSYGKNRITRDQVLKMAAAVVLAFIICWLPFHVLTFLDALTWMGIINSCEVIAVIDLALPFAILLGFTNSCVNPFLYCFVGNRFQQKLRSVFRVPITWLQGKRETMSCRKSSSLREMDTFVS
- assay_protocol: Inhibition of [125I]AII binding to Angiotensin II receptor, type 1 of rat mesenteric arteries
- Type: protein assay
Record the value in nM, omitting the unit from your answer.

Reference set (2 entries):
- compound: "CCCCc1ncc(/C=C(\\Cc2cccs2)C(=O)O)n1Cc1ccccc1C(F)(F)F"
  readout_kind: "IC50"
  recorded_measurement: 260
- compound: "CCCCc1ncc(/C=C/C(=O)O)n1Cc1ccc(C(=O)O)cc1"
  readout_kind: "IC50"
  recorded_measurement: 391

Could you share which IC50 value was measured for CCCCc1ncc(/C=C(\Cc2cccs2)c2nn[nH]n2)n1Cc1ccccc1[N+](=O)[O-] ? 230

Fill in the blank: the reported IC50 of CCCCc1cnc(/C=C(\Cc2cccs2)C(=O)O)n1Cc1ccc(C(=O)O)cc1 is ____. 248

Form field: reported IC50 of CCCCCCc1ncc(/C=C(\Cc2cccs2)C(=O)O)n1Cc1ccccc1[N+](=O)[O-] 43

// query IC50 value for entry CCCCc1ncc(/C=C(\Cc2cccs2)C(=O)O)n1Cc1ccccc1 4530

I have this molecule here, CC/C=C/c1ncc(/C=C(\Cc2cccs2)C(=O)O)n1Cc1ccccc1Cl , and I need its recorded IC50. 570

Requested read-out: IC50. Entry: CCCCc1ncc(/C=C(\Cc2cccs2)C(=O)O)n1Cc1cc(Cl)c(C(=O)O)cc1Cl 35

Form field: reported IC50 of CCCc1ncc(/C=C(\Cc2cccs2)C(=O)O)n1Cc1ccccc1[N+](=O)[O-] 15

Which IC50 value belongs to CCCCc1ncc(/C=C(\Cc2cccs2)C(=O)O)n1Cc1ccc(C(=O)O)c(-c2ccccc2)c1 ? 2.5

Which IC50 value is on record for CCCCc1ncc(/C=C(\Cc2cccs2)C(=O)O)n1Cc1ccc(CC(=O)O)cc1 ? 60
